Target: recombinant guanylate cyclase reporter cell line (Rattus norvegicus, UniProt P19686+P20595)
Construct: expressed in transfected cells; host or cells: recombinant reporter cell line
Sequence (P19686 whole entry): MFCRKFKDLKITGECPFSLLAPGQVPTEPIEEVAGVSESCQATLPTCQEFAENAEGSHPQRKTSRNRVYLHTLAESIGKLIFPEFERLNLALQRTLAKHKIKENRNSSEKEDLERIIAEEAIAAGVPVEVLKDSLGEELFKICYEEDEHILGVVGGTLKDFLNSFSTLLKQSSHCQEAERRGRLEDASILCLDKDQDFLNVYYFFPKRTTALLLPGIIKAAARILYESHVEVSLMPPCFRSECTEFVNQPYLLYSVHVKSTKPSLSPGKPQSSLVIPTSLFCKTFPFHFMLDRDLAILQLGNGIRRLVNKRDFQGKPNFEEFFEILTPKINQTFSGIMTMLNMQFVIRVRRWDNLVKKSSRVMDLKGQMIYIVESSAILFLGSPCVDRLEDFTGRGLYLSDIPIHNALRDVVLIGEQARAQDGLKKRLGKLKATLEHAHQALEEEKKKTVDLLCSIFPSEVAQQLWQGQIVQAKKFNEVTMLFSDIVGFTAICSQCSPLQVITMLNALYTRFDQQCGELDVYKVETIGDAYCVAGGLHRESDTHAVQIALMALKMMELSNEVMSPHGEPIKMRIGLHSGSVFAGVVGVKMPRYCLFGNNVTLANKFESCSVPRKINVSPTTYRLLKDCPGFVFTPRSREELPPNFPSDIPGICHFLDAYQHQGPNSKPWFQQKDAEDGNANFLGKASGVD
Sequence (P20595 whole entry): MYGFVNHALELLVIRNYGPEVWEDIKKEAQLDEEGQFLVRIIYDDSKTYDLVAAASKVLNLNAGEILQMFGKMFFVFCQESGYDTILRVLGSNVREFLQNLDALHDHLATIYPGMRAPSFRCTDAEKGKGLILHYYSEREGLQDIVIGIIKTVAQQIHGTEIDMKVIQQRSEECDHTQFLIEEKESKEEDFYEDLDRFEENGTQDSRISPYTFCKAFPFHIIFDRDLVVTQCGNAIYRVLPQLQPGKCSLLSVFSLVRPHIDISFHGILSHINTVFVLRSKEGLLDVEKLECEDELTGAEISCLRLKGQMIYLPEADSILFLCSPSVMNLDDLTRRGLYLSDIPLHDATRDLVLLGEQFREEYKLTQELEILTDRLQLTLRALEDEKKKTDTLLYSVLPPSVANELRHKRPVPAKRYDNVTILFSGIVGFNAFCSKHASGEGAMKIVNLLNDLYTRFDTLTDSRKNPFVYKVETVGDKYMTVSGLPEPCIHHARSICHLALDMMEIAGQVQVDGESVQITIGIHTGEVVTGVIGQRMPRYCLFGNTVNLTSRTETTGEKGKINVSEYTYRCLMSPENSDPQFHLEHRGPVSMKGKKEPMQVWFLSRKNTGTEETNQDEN
Experiment: Action on recombinant guanylate cyclase reporter cell line
Format: cell-based
Details: in some cases mean values from individual determinations
Experimental: B-2. Action on Recombinant Guanylate Cyclase Reporter Cell Line The cellular action of the compounds according to the invention is determined on a recombinant guanylate cyclase reporter cell line, as described in F. Wunder et al., Anal. Biochem. 339, 104-112 (2005). Representative MEC values (MEC=minimal effective concentration) for the compounds according to the invention are shown in the following table (in some cases as mean values obtained from individual determinations): […]
Endpoint name: MEC (minimal effective concentration)

Cc1cc(OCc2c(F)cccc2F)c2nc(C)c(C(=O)NCC(C)(N)CCO)n2c1 (racemic) [Example 270] ... 1.00 µM
Cc1nc2c(OCc3c(F)cccc3F)cc(Cl)cn2c1C(=O)NC1CNCc2ccccc21 (single isomer, unassigned; ent-6) [Example 107] ... 0.30 µM
Cc1nc2c(OCc3c(F)cccc3F)cccn2c1C(=O)NCC(N)CC(F)(F)F (single isomer, unassigned) [Example 127] ... 1.00 µM
Cc1nc2c(OCc3c(F)cccc3F)cccn2c1C(=O)NCC(C)N1CCOCC1 (racemic) [Example 132] ... 1.00 µM
Cc1cc(OCc2c(F)cccc2F)c2nc(C)c(C(=O)NCC(C)(N)C3CC3)n2c1 (racemic) [Example 259] ... 0.03 µM

input: Look up MEC (minimal effective concentration): Cc1cc(OCc2c(F)cccc2F)c2nc(C)c(C(=O)NC3CNCC3F)n2c1 (racemic)
output: 1.00 µM

input: Look up MEC (minimal effective concentration): COCC(CN)NC(=O)c1c(C)nc2c(OCc3c(F)cccc3F)cc(C)cn12 (single isomer, unassigned)
output: 0.30 µM

input: Look up MEC (minimal effective concentration): Cc1nc2c(OCc3c(F)cccc3F)cccn2c1C(=O)NC(CN)c1ccc(F)cc1 (single isomer, unassigned; enantiomer b) [Example 10]
output: 0.30 µM

input: Look up MEC (minimal effective concentration): CCCC(C)(N)CNC(=O)c1c(C)nc2c(OCc3c(F)cccc3F)cc(Cl)cn12 (racemic) [Example 244]
output: 0.30 µM

input: Look up MEC (minimal effective concentration): CCCC[C@H](CN1CCCC1)NC(=O)c1c(C)nc2c(OCc3c(F)cccc3F)cccn12
output: 1.00 µM

input: Look up MEC (minimal effective concentration): CCCC(C)(N)CNC(=O)c1c(C)nc2c(OCc3c(F)cccc3F)cc(C3CC3)cn12 (single isomer, unassigned; enantiomer b)
output: 0.3 µM

input: Look up MEC (minimal effective concentration): CC[C@@H](N)CNC(=O)c1c(C)nc2c(OCc3c(F)cccc3F)cc(Cl)cn12
output: 1.00 µM

input: Look up MEC (minimal effective concentration): Cc1nc2c(OCc3c(F)cccc3F)cccn2c1C(=O)NCC(C)(N)CO (racemic)
output: 1.00 µM

input: Look up MEC (minimal effective concentration): Cc1nc2c(OCc3c(F)cccc3F)cc(Cl)cn2c1C(=O)NCCC1(N)CCCCC1
output: 0.30 µM

input: Look up MEC (minimal effective concentration): Cc1nc2c(OCc3c(F)cccc3F)cccn2c1C(=O)NCCN1CCN(C)CC1
output: 3.00 µM

input: Look up MEC (minimal effective concentration): CSCCC(CN)NC(=O)c1c(C)nc2c(OCc3c(F)cccc3F)cc(C)cn12 (racemic)
output: 0.10 µM

input: Look up MEC (minimal effective concentration): Cc1nc2c(OCc3c(F)cccc3F)cccn2c1C(=O)NCC(N)C(F)(F)C(F)F (single isomer, unassigned) [Example 231]
output: 0.30 µM

input: Look up MEC (minimal effective concentration): CCCC(C)(N)CNC(=O)c1c(C)nc2c(OCc3cccc(F)c3)cc(C)cn12 (racemic)
output: 1.00 µM

input: Look up MEC (minimal effective concentration): Cc1nc2c(OCc3cccc(F)c3F)cccn2c1C(=O)NC(CN)c1ccc(F)c(F)c1 (centres unmarked)
output: 1.00 µM

input: Look up MEC (minimal effective concentration): CCCC(C)(N)CNC(=O)c1c(C)nc2c(OCc3c(F)cccc3F)cccn12 (centres unmarked)
output: 0.30 µM

input: Look up MEC (minimal effective concentration): Cc1nc2c(OCc3c(F)cccc3F)cccn2c1C(=O)NC(CN)c1ccc(F)cc1 (racemic) [Example 9]
output: 0.30 µM

input: Look up MEC (minimal effective concentration): Cc1cc(OCc2c(F)cccc2F)c2nc(C)c(C(=O)NC(CN)c3ccc4c(c3)OCCO4)n2c1 (racemic)
output: 0.30 µM

input: Look up MEC (minimal effective concentration): Cc1nc2c(OCc3c(F)cccc3F)cc(Cl)cn2c1C(=O)NCCN1CCN(C)CC1
output: 1.00 µM

input: Look up MEC (minimal effective concentration): Cc1nc2c(OCc3c(F)cccc3F)cccn2c1C(=O)NCC(C)(N)CCOCc1ccccc1 (racemic) [Example 264]
output: 0.03 µM

input: Look up MEC (minimal effective concentration): CCCC(C)(N)CNC(=O)c1c(C2CC2)nc2c(OCc3c(F)cccc3F)cc(C)cn12 (centres unmarked)
output: 0.30 µM

input: Look up MEC (minimal effective concentration): Cc1cc(OCc2c(F)cccc2F)c2nc(C)c(C(=O)NCC(N)c3cc(F)c(F)c(F)c3)n2c1 (racemic)
output: 1.00 µM

input: Look up MEC (minimal effective concentration): Cc1nc2c(OCc3c(F)cccc3F)cccn2c1C(=O)NC(CN)COC(C)C (single isomer, unassigned) [Example 93]
output: 0.30 µM

input: Look up MEC (minimal effective concentration): Cc1nc2c(OCc3c(F)cccc3F)cccn2c1C(=O)NCCN(CC(F)F)C1CC1
output: 1.00 µM

input: Look up MEC (minimal effective concentration): Cc1cc(OCc2c(F)cccc2F)c2nc(C)c(C(=O)NCCN(CC(F)F)C3CC3)n2c1
output: 0.10 µM

Values were extracted from patent US20150274719A1.
